Reference for the values: patent US10538520B2

system: MV4-11; assay: Cytotoxicity towards MV4-11 cell line; format: cell-based; conditions: Homo sapiens
// reported IC50 per item

# example entries with known answers
> print(dat)
                                   molecule  quantity.measured      result
1  O=C(NCCCn1ccnc1)c1ccc(N2CCCC2)c(C#Cc2ccccc2)c1               IC50   < 1000 nM
2  O=C(NCCCc1cn[nH]c1)c1ccc(-n2cccn2)c(C#Cc2ccccn2)c1               IC50   < 1000 nM
3  O=C(NCCCc1cn[nH]c1)c1ccc(-n2ccnc2)c(C#Cc2ccc(F)cc2)c1               IC50   < 1000 nM
4  CN(C)c1ccc(C(=O)NCCCn2ccnc2)cc1C#Cc1ccccc1               IC50   < 1000 nM
5  CC(CNC(=O)c1ccc(-n2cccn2)c(C#Cc2cccnc2)c1)n1cncn1 (stereo not shown)               IC50  > 20000 nM

So what's the measured IC50 for this one? "COc1ccccc1C#Cc1cc(C(=O)NCCCc2cn[nH]c2)ccc1-n1cccn1"
< 1000 nM

Can you share its IC50? I mean this molecule: "C[C@@H]1CN(c2ncc(C(=O)NCCCc3cn[nH]c3)cc2C#Cc2ccc(F)cc2)C[C@H](C)O1"
< 1000 nM

Recorded IC50 of "O=C(NCCCc1cn[nH]c1)c1ccc(-n2cccn2)c(C#Cc2ccc(F)cc2)c1" , please.
< 1000 nM

So what does the record say about IC50 for "O=C(NCCCCn1ccnc1)c1ccc(-n2cccn2)c(C#Cc2ccccc2)c1" ?
< 1000 nM

For the molecule CN(C)CC1(O)CCN(c2ccc(C(=O)NCCCc3cn[nH]c3)cc2C#Cc2ccc(F)cc2)C1 (stereo not shown) , what IC50 is on record?
< 1000 nM

Could you tell me which IC50 is on file for "Cc1nonc1CN(C)C(=O)c1ccc(-n2cccn2)c(C#Cc2ccccc2)c1" ?
10000 to 20000 nM

I'd like to know its IC50. The molecule in question is "Nc1cccc(C#Cc2cc(C(=O)NCCCc3cn[nH]c3)ccc2-n2cccn2)n1"
< 1000 nM

Entry "O=C(NCCCc1cn[nH]c1)c1ccc(N2CCOCC2)c(C#Cc2ccc(Cl)nc2)c1" has what IC50?
< 1000 nM

Name the reported IC50 value associated with the molecule CC(CNC(=O)c1ccc(-n2cccn2)c(C#Cc2ccccc2)c1)n1cncn1 (stereo not shown)
> 20000 nM

Sample "Cc1nn(-c2ccc(C(=O)NCCCc3cn[nH]c3)cc2C#Cc2ccccc2)c(C)c1C" — what was its IC50?
< 1000 nM

For "Cc1nc(C)n(CCNC(=O)c2ccc(-n3cccn3)c(C#Cc3ccccc3)c2)n1" , what is its reported IC50?
1000 to 5000 nM

What measured IC50 goes with "NCc1ccc(C#Cc2cc(C(=O)NCCCc3cn[nH]c3)ccc2-n2cccn2)cc1" ?
< 1000 nM

====

tested on: MV4-11; assay: Cytotoxicity towards MV4-11 cell line; type: cell-based; conditions: Homo sapiens
Examples of compounds with documented IC50 follow.

These recorded examples may help you get a feel for the data.
> print(dat)
                                   compound  assayed.system     result
1  O=C(NCCCc1cn[nH]c1)c1cnc(N2CCOCC2)c(C#Cc2ccc(F)cc2)c1 [TT-03767]          MV4-11  < 1000 nM
2  O=C(NCCCc1cn[nH]c1)c1ccc(-n2cccn2)c(C#Cc2ccccc2)c1 [TT-02715]          MV4-11  < 1000 nM
3  O=C(NCc1cccnc1)c1ccc(-n2cccn2)c(C#Cc2ccccc2)c1 [TT-02684]          MV4-11  < 1000 nM

# lookup: IC50 of CN(C)c1ccc(C(=O)NCCCc2cn[nH]c2)cc1C#Cc1ccccc1 [TT-03242]
< 1000 nM

Value lookup for IC50; key = O=C(NCCCn1ccnc1)c1ccc(-n2cnnc2)c(C#Cc2ccccc2)c1 [TT-02731]
< 1000 nM

Consider the compound O=C(NCCCc1cn[nH]c1)c1ccc(N2CCCC2)c(C#Cc2ccccc2)c1 [TT-03230] and give its measured IC50.
< 1000 nM

What does the data say about its IC50? Entry: O=C(NCCCc1cn[nH]c1)c1ccc(N2CCCC(CO)C2)c(C#Cc2ccc(F)cc2)c1 (stereo not drawn) [TT-03595]
< 1000 nM

Need IC50, item O=C(NCCN1C(=O)CSC1=O)c1ccc(-n2cccn2)c(C#Cc2cccnc2)c1 [TT-02938]
> 20000 nM

Find the recorded IC50 belonging to Cc1cc(SCCNC(=O)c2ccc(-n3cccn3)c(C#Cc3ccccc3)c2)[nH]n1 [TT-02691] and report it.
10000 to 20000 nM
